measurementDescription: TOX21_p53_BLA_p4_viability: Viability Assessment in the Tox21 HCT-116 p53 Agonism Beta-lactamase Assay, Phase 4 (AID 2283597);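 further: hits lower the luminescence signal meaning cytotoxicity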
Description: TOX21_p53_BLA_p4 is a cell-based, single-readout assay that uses HCT116, a human intestinal cell line, […] in a 1536-well plate.TOX21_p53_BLA_p4_viability is an assay readout measuring cellular ATP content and detected with CellTiter-Glo Luciferase-coupled ATP quantitation.TOX21_p53_BLA_p4_viability used a type of viability reporter where loss-of-signal activity can be used to understand changes in the cell viability. […]
Records with an inconclusive call do not appear. Calls of active or inactive are those of the source. How the source made its calls: active means hit-call score of the fitted dose curve at least 0.9, where 1 is the maximum; inconclusive means response in the unintended direction; inactive means score below 0.9.
Outcome codes: 1 = active, -1 = inactive

# compound, cat
rows = [
    ("CC(O)CO (stereo unspecified) (tested in a mixture with another compound)", -1),
    ("OCCN(CCO)CCN(CCO)CCO", -1),
    ("CCCCCCCCCCCCCCC(=O)NC(CO)CCCCCCCCCCCCCC (stereo unspecified)", -1),
    ("CCCCOc1cc(C(=O)OCCN(CC)CC)ccc1N", -1),
    ("CCCc1cc(C(N)=S)ccn1", -1),
    ("OC(CCN1CCCCC1)(c1ccccc1)C1CC2C=CC1C2 (stereo unspecified)", -1),
    ("CO/N=C(\\C(=O)N[C@@H]1C(=O)N2C(C(=O)O)=C(CSC(=O)c3ccco3)CS[C@H]12)c1csc(N)n1", -1),
    ("Cc1cc(O)c(C(C)(C)C)cc1Sc1cc(C(C)(C)C)c(O)cc1C", 1),
    ("CC(=O)c1ccc2c(c1)N(CCCN1CCC(CCO)CC1)c1ccccc1S2", -1),
    ("CO[C@H](C(=O)[C@@H](O)[C@@H](C)O)C1Cc2cc3cc(O[C@H]4C[C@@H](O[C@H]5C[C@@H](O)[C@H](O)[C@@H](C)O5)[C@@H](O)[C@@H](C)O4)c(C)c(O)c3c(O)c2C(=O)[C@H]1O[C@H]1C[C@@H](O[C@H]2C[C@@H](O[C@H]3C[C@](C)(O)[C@H](O)[C@@H](C)O3)[C@H](O)[C@@H](C)O2)[C@H](O)[C@@H](C)O1 (stereo partly specified)", -1),
    ("O=C1C(=O)c2ncccc2-c2cccnc21", 1),
    ("CCOC(=O)OC(C)OC1=C(C(=O)Nc2ccccn2)N(C)S(=O)(=O)c2ccccc21 (stereo unspecified)", -1),
    ("Cc1cccc(C)c1Nc1ncccc1C(=O)O", -1),
    ("CNCCC=C1c2ccccc2CCc2ccccc21", 1),
    ("CN1CCCC(n2nc(Cc3ccc(Cl)cc3)c3ccccc3c2=O)CC1 (stereo unspecified)", -1),
    ("O=C(O)c1nc(=O)[nH]c(=O)[nH]1", -1),
    ("CCc1cccc(N(C)C(N)=Nc2cccc3ccccc23)c1", -1),
    ("O=[N+]([O-])c1ccccc1CCO", -1),
    ("Nc1c2c(nc3c1CCC3)CCCC2", -1),
    ("CC(=O)c1cccc([N+](=O)[O-])c1", -1),
    ("Cc1ccc2c(n1)Oc1ccc(C(C)C(=O)OCC(=O)N(C)C)cc1C2 (stereo unspecified)", -1),
]

====

Read-out: Monokine induced gamma interferon (MIG), CXCL9 (gene 4283)
measurementDescription: BSK_hDFCGF_MIG: BioMAP Diversity Plus: hDFCGF Assay for Monokine induced gamma interferon (MIG) Biomarker Activity (AID 2283063)
setupConditions: primary human foreskin fibroblasts; actives raise or lower the signal
Activity calls are given as the source filed them. How the source made its calls: active means hit-call score of the fitted dose curve at least 0.9, where 1 is the maximum; inactive means score below 0.9.
Possible outcomes: y = active, n = inactive

# molecule, cat
rows = [
    ("CCC(C)=NO", "n"),
    ("COc1ccccc1Oc1c(NS(=O)(=O)c2ccc(C(C)(C)C)cc2)nc(-c2ncccn2)nc1OCCO", "n"),
    ("Oc1cccc2ccccc12", "n"),
    ("CC(C)C1OCCN1CCOC(=O)NCCCCCCNC(=O)OCCN1CCOC1C(C)C (stereo unspecified)", "n"),
    ("C1CN(CCOCCN2CCOCC2)CCO1", "n"),
    ("Sc1nc2ccccc2s1", "n"),
    ("COc1ccc(C(=O)c2ccccc2O)c(O)c1", "n"),
    ("CC(C)CC(=O)CC(C)CC(C)C (stereo unspecified)", "n"),
    ("O=C(C(=O)c1ccccc1)c1ccccc1", "n"),
    ("CCCCCCC(O)CCCCCCCCCCC(=O)OC (stereo unspecified)", "n"),
    ("CN(C)CCC(c1ccc(Cl)cc1)c1ccccn1 (stereo unspecified)", "n"),
    ("Cc1cccnc1", "n"),
    ("CN(C)c1ccc(C(c2ccccc2)c2ccc(N(C)C)cc2)cc1", "n"),
    ("CCCCCCCCCCC1CO1 (stereo unspecified)", "y"),
    ("Cc1c(C(N)=O)cc([N+](=O)[O-])cc1[N+](=O)[O-]", "n"),
    ("CCC[Si](OC(C)=O)(OC(C)=O)OC(C)=O", "n"),
]

====

studySystem: Paired box protein Pax-6 (Homo sapiens) (UniProt P26367)
Sequence (P26367 whole entry, looked up): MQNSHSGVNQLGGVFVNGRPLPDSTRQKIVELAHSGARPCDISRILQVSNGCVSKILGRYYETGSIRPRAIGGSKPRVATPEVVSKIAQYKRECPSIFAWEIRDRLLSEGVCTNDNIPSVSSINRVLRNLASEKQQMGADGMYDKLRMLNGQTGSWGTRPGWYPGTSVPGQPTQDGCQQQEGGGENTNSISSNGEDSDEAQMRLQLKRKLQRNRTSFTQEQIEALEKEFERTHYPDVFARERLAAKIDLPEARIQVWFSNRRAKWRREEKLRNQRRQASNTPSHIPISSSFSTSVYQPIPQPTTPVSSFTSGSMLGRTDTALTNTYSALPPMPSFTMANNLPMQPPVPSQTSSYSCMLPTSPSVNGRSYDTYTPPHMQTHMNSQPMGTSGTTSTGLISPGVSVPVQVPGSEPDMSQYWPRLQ
measurementDescription: ATG_Pax6_CIS: Attagene CIS-FACTORIAL HepG2 Assay for human Paired Box 6 (PAX6) (AID 2282956)
setupConditions: HepG2 CIS-FACTORIAL PAX6 reporter transcription, RNA readout; actives raise or lower the signal
Active and inactive are the calls of the source. The calls were made as follows: active = hit-call score of the fitted dose curve at least 0.9, where 1 is the maximum; inactive = score below 0.9.
Possible outcomes: active, inactive

# molecule, studySystem, cat
data = [
    ("CC/C=C/CCO", "Paired box protein Pax-6 (Homo sapiens) (UniProt P26367)", "inactive"),
    ("C[C@H]1C[C@H]2[C@@H]3CCC4=CC(=O)C=C[C@]4(C)[C@@]3(F)[C@@H](O)C[C@]2(C)[C@@]1(O)C(=O)CO", "Paired box protein Pax-6 (Homo sapiens) (UniProt P26367)", "active"),
    ("CCCCNC(N)=O", "Paired box protein Pax-6 (Homo sapiens) (UniProt P26367)", "inactive"),
    ("CCCN[C@H]1CCc2nc(N)sc2C1", "Paired box protein Pax-6 (Homo sapiens) (UniProt P26367)", "inactive"),
    ("CC1(C)S[C@@H]2[C@H](NC(=O)[C@H](N)c3ccccc3)C(=O)N2[C@H]1C(=O)O", "Paired box protein Pax-6 (Homo sapiens) (UniProt P26367)", "inactive"),
    ("CC(=O)Nc1c(I)c(NC(C)=O)c(I)c(C(=O)O)c1I", "Paired box protein Pax-6 (Homo sapiens) (UniProt P26367)", "inactive"),
    ("O=C1CCCCCCCCCCCCCC1", "Paired box protein Pax-6 (Homo sapiens) (UniProt P26367)", "inactive"),
    ("Brc1ccc(Oc2ccc(Br)cc2)cc1", "Paired box protein Pax-6 (Homo sapiens) (UniProt P26367)", "inactive"),
    ("CO[Si](CCCNCCN)(OC)OC", "Paired box protein Pax-6 (Homo sapiens) (UniProt P26367)", "inactive"),
    ("O=C1NC(=O)C2CC=CCC12 (stereo not given)", "Paired box protein Pax-6 (Homo sapiens) (UniProt P26367)", "inactive"),
    ("CCCC[N+]1(C)CCCC1", "Paired box protein Pax-6 (Homo sapiens) (UniProt P26367)", "inactive"),
    ("Cc1cc(O)cc(C)c1Cl", "Paired box protein Pax-6 (Homo sapiens) (UniProt P26367)", "inactive"),
    ("COc1ccc2ccccc2c1", "Paired box protein Pax-6 (Homo sapiens) (UniProt P26367)", "inactive"),
    ("CC(C)n1c(/C=C/[C@@H](O)C[C@@H](O)CC(=O)O)c(-c2ccc(F)cc2)c2ccccc21", "Paired box protein Pax-6 (Homo sapiens) (UniProt P26367)", "inactive"),
    ("NCc1ccccc1", "Paired box protein Pax-6 (Homo sapiens) (UniProt P26367)", "inactive"),
    ("COC(OC)C(C)c1ccccc1 (stereo not given)", "Paired box protein Pax-6 (Homo sapiens) (UniProt P26367)", "inactive"),
    ("CC(=O)c1nccs1", "Paired box protein Pax-6 (Homo sapiens) (UniProt P26367)", "inactive"),
    ("CCCCCCOC(=O)CCCCCCCC(=O)OCCCCCC", "Paired box protein Pax-6 (Homo sapiens) (UniProt P26367)", "inactive"),
    ("COC(=O)CCSCCC(=O)OC", "Paired box protein Pax-6 (Homo sapiens) (UniProt P26367)", "inactive"),
    ("C=C(C)C(=O)OCC1CCCO1 (stereo not given)", "Paired box protein Pax-6 (Homo sapiens) (UniProt P26367)", "inactive"),
    ("CC1=NN(c2cc(Cl)c(S(=O)(=O)O)cc2Cl)C(=O)C1N=Nc1ccc(S(=O)(=O)O)cc1 (stereo not given)", "Paired box protein Pax-6 (Homo sapiens) (UniProt P26367)", "inactive"),
    ("C=C(C)C(=O)OCCCCCC", "Paired box protein Pax-6 (Homo sapiens) (UniProt P26367)", "inactive"),
    ("O=[N+]([O-])c1ccc2nc[nH]c2c1", "Paired box protein Pax-6 (Homo sapiens) (UniProt P26367)", "inactive"),
    ("CN(C)N=Nc1ccccc1", "Paired box protein Pax-6 (Homo sapiens) (UniProt P26367)", "inactive"),
    ("C=CN1CCCCCC1=O", "Paired box protein Pax-6 (Homo sapiens) (UniProt P26367)", "inactive"),
    ("CN1CCCC1", "Paired box protein Pax-6 (Homo sapiens) (UniProt P26367)", "inactive"),
    ("C1=CCC=C1", "Paired box protein Pax-6 (Homo sapiens) (UniProt P26367)", "inactive"),
    ("C=C1CC[C@H]2C[C@@H]1C2(C)C", "Paired box protein Pax-6 (Homo sapiens) (UniProt P26367)", "inactive"),
    ("OCCOCCOCCOCCOCCO", "Paired box protein Pax-6 (Homo sapiens) (UniProt P26367)", "inactive"),
    ("NC(=O)c1ccc(N)cc1", "Paired box protein Pax-6 (Homo sapiens) (UniProt P26367)", "inactive"),
]
